- Experiment description: Wnt3a reporter signal inhibition, confirmation, counter-screen for Gli-SUFU antagonist project, Wnt-LIGHT cells, luminescence, single concentration (AID 651995)
- Protocol conditions: Wnt3a-driven luciferase reporter, at 6.25 µM
The campaign covered roughly 2,500 compounds. About 480 (19%) were called active.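 Rule for the calls: active = mean inhibition above about 25% (limit read from the data); inactive = the rest.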 Not all results are given here.
Your reply should match one of these outcome classes. TRUE (active), FALSE (inactive)

Consider the following illustrative entries.
- Compound: "O=C(NC1CCN(C(=S)Nc2ccc(Cl)cc2)CC1)C1CCCCC1"
  Cat: "FALSE"
- Compound: "CCCCC(=O)NC(c1ccc(OC)c(OC)c1)c1ccc2cccnc2c1O (stereo not drawn)"
  Cat: "TRUE"

Recorded test outcome, item CC(=O)Nc1cccc(OCC(=O)/C=C2\N(C)c3ccccc3C2(C)C)c1 FALSE

Tell me the assay call for Cc1ccc(NC(=S)Nc2ccc(F)cc2)cc1 please. FALSE

Record request — test call for Cc1onc(-c2ccccc2)c1C(=O)Nc1ccccc1C#N FALSE

====

- Experiment description: Wnt3a reporter signal inhibition, confirmation, counter-screen for Gli-SUFU antagonist project, Wnt-LIGHT cells, luminescence, single concentration (AID 651995)
- Protocol conditions: Wnt3a-driven luciferase reporter, at 6.25 µM, active compounds read high
The campaign covered roughly 2,500 compounds. About 480 (19%) were called active. These entries were drawn from the full list.
Measurement name: inhibition (%)
Numbers only, in %.

Look over these answered cases.
- Compound: "O=C(CN1C(=O)c2ccccc2S1(=O)=O)N1CCc2ccccc21"
  inhibition [%]: 72.4
- Compound: "CC(C)OCC(O)CN1CCN(C(c2ccccc2)c2ccccc2)CC1 (stereo unspecified)"
  inhibition [%]: -21.2
- Compound: "COc1ccc(Cc2nnc(N/N=C/c3ccccc3O)[nH]c2=O)cc1OC"
  inhibition [%]: 59.9
- Compound: "COc1ccc(/C=N/N=C2/C(=O)Nc3ccccc32)cc1O"
  inhibition [%]: -23.9
- Compound: "CC(=O)N1CCCc2cc(S(=O)(=O)N3CCCC(C(=O)N4CCN(c5cccc(Cl)c5)CC4)C3)ccc21 (stereo unspecified)"
  inhibition [%]: 29.8

Documented inhibition of CNc1nnc(-c2ccco2)s1 : -3.08

====

Record form. Attribute: inhibition. Fill in for each entry.
- Experiment description: Wnt3a reporter signal inhibition, confirmation, counter-screen for Gli-SUFU antagonist project, Wnt-LIGHT cells, luminescence, single concentration (AID 651995)
- Protocol conditions: Wnt3a-driven luciferase reporter, at 6.25 µM, active compounds read high
The campaign covered roughly 2,500 compounds. About 480 (19%) were called active. These entries were drawn from the full list.
Answers are plain numbers, in %.

Solved entries (count: 10):
- Compound: "COc1ccc(NS(=O)(=O)c2ccc(NC(C)=O)cc2)cc1OC"
  inhibition / %: 13.2
- Compound: "C/C(=N\\Nc1ccc(Cl)nn1)c1ccccc1O"
  inhibition / %: -26.7
- Compound: "COc1ccc(NC(=O)[C@H](NC(=O)[C@@H]2Cc3ccccc3CN2)c2ccccc2)cc1"
  inhibition / %: -2.11
- Compound: "COc1ccc2c(C)cc3nnnn3c2c1"
  inhibition / %: -7.11
- Compound: "c1c2c(cc3sc(N4CCCCC4)nc13)OCCO2"
  inhibition / %: 85.8
- Compound: "CCOc1ccc(-n2c(O)c(/C=N/Nc3nc(C)cc(C)n3)c3ccccc3c2=O)cc1"
  inhibition / %: 16.1
- Compound: "CCCC1=Nc2cc(C(=O)NCc3ccco3)ccc2Sc2ccccc21"
  inhibition / %: -23.7
- Compound: "CCOC(=O)c1ccc(NC(=O)Cn2cnc3cc(C)c(C)cc32)cc1"
  inhibition / %: -27.9
- Compound: "Cc1ccc(O)c(NC(=O)COc2cc(C)ccc2C)c1"
  inhibition / %: -3.69
- Compound: "CC(=O)OCCC(C)C"
  inhibition / %: -9.39

Could you report inhibition for every entry in the following list?
1. COc1ccccc1CCNC(=O)C(=O)NCCC1CCCCN1S(=O)(=O)c1cccs1 (configuration not stated)
2. O=C(Nc1cccc(S(=O)(=O)Nc2ccc(Cl)cc2)c1)c1ccc2c(c1)OCCO2

[-17.3, -22.2]

This collection of values is drawn from PubChem BioAssay AID651995.
